Origin of the recorded values: paper PMC7176276

# Tested on: Leishmania donovani amastigotes
# EXPERIMENT DESCRIPTION: In vitro antileishmanial activity assay, macrophage-amastigotes model (MTT)
# Format: cell-based
# ASSAY SETUP: TC50 RAW 264.7 / IC50 amastigotes
MEASUREMENT KIND: Therapeutic Index (TC50/IC50) amastigotes
// no unit string in output, number only

Here are 4 compounds together with their reported answers.
{"COMPOUND": "Cc1nn2c(=O)c3c([nH]c2c1-c1ccc(Cl)cc1)CCCC3", "REPORTED VALUE": 1}
{"COMPOUND": "CNC(=O)C1Cc2ccccc2N1C(=O)Cc1ccc(F)cc1 (centres unmarked)", "REPORTED VALUE": 237}
{"COMPOUND": "CCc1nn(C)c(C(=O)NCc2ccc(Oc3ccc(C)cc3)cc2)c1Cl", "REPORTED VALUE": 453}
{"COMPOUND": "CC(C)(C)OC(=O)N1CCN(c2[nH]nnc2-c2ccc(Oc3ccccc3)cc2)CC1", "REPORTED VALUE": 16}

Query: GET /values?readout=Therapeutic Index (TC50/IC50) amastigotes&item= CC(C)(C)C(O)C(Oc1ccc(-c2ccccc2)cc1)n1cncn1 (centres unmarked)
Reply: 16
